system: MKN45 cells; experiment: Payload sensitivity of MKN45 cells; assay type: cell-based, human; conditions: MKN45, 6 days; read-out: EC50
ENDPOINT NAME: EC50 (nM)
One number for each entry, in nM.

Q) Item under review: COc1cc2cc(c1Cl)N(C)C(=O)C[C@H](OC(=O)[C@H](C)N(C)C(=O)CCC(C)(C)S)[C@]1(C)O[C@H]1[C@H](C)[C@@H]1C[C@@](O)(NC(=O)O1)[C@H](OC)/C=C/C=C(\C)C2 [P1, DM4] . Reported EC50?
A) 1.16
